Catalogue of hERG current change (%, negative = inhibition) at 10uM values
- tested-target: human ether-à-go-go-related gene (hERG) potassium channel (human);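 also: peak tail current of the secondary pulse compared with the same well before compound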
- procedure-details: primary screen, population patch clamp on CHO cells stably expressing hERG; higher = less effect of the substance
The campaign covered roughly 310,000 compounds. About 14,000 (4.5%) showed an effect of 50% or more. Effects have a minus sign here. The sample holds strong results, similar compounds and a random draw of the others, so the mix is not that of the screen.

INSERT INTO results (compound, tested_target, meas_value) VALUES
  ('Cc1ccccc1C(=O)c1cccn1CC(=O)N1CCCCC1', 'human ether-à-go-go-related gene (hERG) potassium channel (human)', '10.6%');

For the compound O=C(NN=C1C2CC3CC1CC(Cl)(C3)C2)c1cccs1 , report hERG current change (%, negative = inhibition) at 10uM.
8.54%

For the compound COc1ccc(Cc2nc3c4c(ncn3n2)Oc2c(ccc3ccccc23)C4c2ccc(OC)c(OC)c2)cc1 (stereo not shown) , report hERG current change (%, negative = inhibition) at 10uM.
14.7%

For the compound CN(C)CCOC(=O)C12CC3(C)CC(C)(CC(C)(C3)C1)C2.Cl , report hERG current change (%, negative = inhibition) at 10uM.
-7.13%

For the compound CC(=O)n1nc2nc(C)cc(C)c2c1N , report hERG current change (%, negative = inhibition) at 10uM.
13.9%

---

- tested-target: human ether-à-go-go-related gene (hERG) potassium channel (human, UniProt Q12809);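 also: peak tail current of the secondary pulse compared with the same well before compound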
- Sequence (Q12809 whole entry, looked up): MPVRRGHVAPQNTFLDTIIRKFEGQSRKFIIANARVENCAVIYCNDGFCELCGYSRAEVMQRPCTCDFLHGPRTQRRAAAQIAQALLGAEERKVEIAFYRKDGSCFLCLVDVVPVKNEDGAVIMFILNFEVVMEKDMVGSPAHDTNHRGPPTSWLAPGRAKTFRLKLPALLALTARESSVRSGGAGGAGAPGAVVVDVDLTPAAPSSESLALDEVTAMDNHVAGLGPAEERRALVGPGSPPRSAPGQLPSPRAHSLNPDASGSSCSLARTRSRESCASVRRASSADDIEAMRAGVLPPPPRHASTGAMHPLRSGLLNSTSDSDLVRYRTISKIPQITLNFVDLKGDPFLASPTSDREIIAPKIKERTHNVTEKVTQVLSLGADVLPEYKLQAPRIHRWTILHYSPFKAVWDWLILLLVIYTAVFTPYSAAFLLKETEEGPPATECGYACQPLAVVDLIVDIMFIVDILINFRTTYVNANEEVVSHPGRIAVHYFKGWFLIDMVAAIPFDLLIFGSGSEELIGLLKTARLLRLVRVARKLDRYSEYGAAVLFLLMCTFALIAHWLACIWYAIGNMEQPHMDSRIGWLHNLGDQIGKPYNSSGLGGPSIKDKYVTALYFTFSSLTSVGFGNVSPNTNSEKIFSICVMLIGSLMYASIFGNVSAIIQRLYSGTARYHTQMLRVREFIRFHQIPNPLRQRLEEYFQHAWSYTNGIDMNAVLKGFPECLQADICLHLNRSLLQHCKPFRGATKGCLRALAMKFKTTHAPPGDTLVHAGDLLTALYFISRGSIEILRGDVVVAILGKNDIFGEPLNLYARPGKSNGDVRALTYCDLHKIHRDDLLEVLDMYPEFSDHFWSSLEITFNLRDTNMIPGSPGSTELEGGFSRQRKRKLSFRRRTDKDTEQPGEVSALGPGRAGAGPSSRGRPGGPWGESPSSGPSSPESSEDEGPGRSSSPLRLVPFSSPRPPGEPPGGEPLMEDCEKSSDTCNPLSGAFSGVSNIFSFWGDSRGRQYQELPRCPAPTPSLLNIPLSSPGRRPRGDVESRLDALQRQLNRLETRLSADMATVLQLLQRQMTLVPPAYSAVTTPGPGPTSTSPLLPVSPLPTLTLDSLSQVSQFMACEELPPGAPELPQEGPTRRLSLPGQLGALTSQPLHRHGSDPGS
- procedure-details: primary screen, population patch clamp on CHO cells stably expressing hERG; higher = less effect of the substance
Screen size: about 310,000 compounds; about 14,000 (4.5%) showed an effect of 50% or more. The effect is printed as a negative number. This excerpt belongs to a sample that is enriched for strong results.
Catalogue of hERG current change (%, negative = inhibition) at 10uM values
Field format: number, assumed %, no unit text.

INSERT INTO results (item_smiles, tested_target, meas_value) VALUES
  ('Cl.c1ccc2c(Nc3ccc4c(c3)OCCO4)c3c(nc2c1)CCC3', 'human ether-à-go-go-related gene (hERG) potassium channel (human, UniProt Q12809)', -52.3),
  ('O=C(Nc1ccc2c(c1)OCCO2)c1cc(-c2ccccc2)nc2ccccc12', 'human ether-à-go-go-related gene (hERG) potassium channel (human, UniProt Q12809)', 9.23),
  ('Cc1ccc2nc3c(c(Nc4ccc5c(c4)OCCO5)c2c1)CCC3.Cl', 'human ether-à-go-go-related gene (hERG) potassium channel (human, UniProt Q12809)', -51.7),
  ('Cc1ccc2nc(-c3ccc4c(c3)OCCO4)cc(C(=O)O)c2c1', 'human ether-à-go-go-related gene (hERG) potassium channel (human, UniProt Q12809)', 4.86),
  ('c1ccc2c(Nc3ccc4c(c3)OCCO4)c3c(nc2c1)CCCC3', 'human ether-à-go-go-related gene (hERG) potassium channel (human, UniProt Q12809)', -92.4);

For the molecule Cc1ccc(NC(=O)Cn2ccc([N+](=O)[O-])n2)cc1C , report hERG current change (%, negative = inhibition) at 10uM.
14.2

For the molecule COc1cc(CNCc2ccccn2)ccc1OCc1ccc(Cl)cc1.Cl , report hERG current change (%, negative = inhibition) at 10uM.
-56.8

For the molecule O=C(Nc1c2c(nc3ccccc13)CCCC2)c1ccccc1F , report hERG current change (%, negative = inhibition) at 10uM.
-3

For the molecule Cc1ccc2nc(-c3ccncc3)cc(C(=O)Nc3ccc4c(c3)OCCO4)c2c1 , report hERG current change (%, negative = inhibition) at 10uM.
3.46

For the molecule COc1cc(CNCc2cccnc2)ccc1OCc1ccccc1.Cl , report hERG current change (%, negative = inhibition) at 10uM.
-21.8

Hello, the source for this data is paper PMC4336329, in case you need it.
